Hey, just so you know, these numbers are from the supplement of paper PMC10338343.

tested on: EfPiwi piRISC loaded with L1MC piRNA (26 nt); test: pre-steady-state target cleavage rate (min^-1); auxiliary factor: 500 nM Ephydatia muelleri Gtsf1; guide: L1MC piRNA 5'p-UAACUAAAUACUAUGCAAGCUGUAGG; higher = faster piRNA-guided slicing of the target
measuredParameter: pre-steady-state target cleavage rate
// no unit string in output, number only

Exercise: Can you share its pre-steady-state target cleavage rate? I mean this sequence: `UCCUCCUACAGGUUGCAUAGUAUAUAGUUA`
Key: 0.0129

Exercise: Can you share its pre-steady-state target cleavage rate? I mean this sequence: `UCCUGCUAGAGCUUGCAUAGUAUAUAGUUA`
Key: 0.00471

Exercise: Can you share its pre-steady-state target cleavage rate? I mean this sequence: `UCCUGGAACAGCUAGCAUAGUAUUUUGUUA`
Key: 0.00465

Exercise: Can you share its pre-steady-state target cleavage rate? I mean this sequence: `UCCUGGUACAGCUUGCAUACUAUUUAGAAA`
Key: 0.00236

Exercise: Can you share its pre-steady-state target cleavage rate? I mean this sequence: `UCCUGGUACAGCUUGCAUAGAAUUUAGUUA`
Key: 0.00314

Exercise: Can you share its pre-steady-state target cleavage rate? I mean this sequence: `UCCUGCUACAGCUUGCAAAGUAUUUAGAAA`
Key: 0.00352

Exercise: Can you share its pre-steady-state target cleavage rate? I mean this sequence: `UCCUGGAUCUCCUUGCAUAGUAUUUAGAAA`
Key: 0.00628

Exercise: Can you share its pre-steady-state target cleavage rate? I mean this sequence: `UCCUGCUACAGCUUGCUAGUAUUUAGUUA`
Key: 0.00473

Exercise: Can you share its pre-steady-state target cleavage rate? I mean this sequence: UCCUGGAUCAGCUUGCAUAGUAUUUAGUUC [g2:g22:cont:t1C]
Key: 0.0501

Exercise: Can you share its pre-steady-state target cleavage rate? I mean this sequence: `UCCUGGUACAGCUGUGCAUAGUAUUUAGUUA`
Key: 0.00903

Exercise: Can you share its pre-steady-state target cleavage rate? I mean this sequence: `UCCUGGAUGUCCUUGCAUAGUAUUUAGCUUA`
Key: 0.0051

Exercise: Can you share its pre-steady-state target cleavage rate? I mean this sequence: `UCCUCCUACUGCUUGGAUAGUAUUUAGUUA`
Key: 0.064

Exercise: Can you share its pre-steady-state target cleavage rate? I mean this sequence: `UCCUGGAUGUGUUUGCAUAGUAUUUAGUUA`
Key: 0.0181

Exercise: Can you share its pre-steady-state target cleavage rate? I mean this sequence: `UCCUGGAACAGCUUGCAUAGUAGUUAGUUA`
Key: 0.00926

Exercise: Can you share its pre-steady-state target cleavage rate? I mean this sequence: `UCCUGCUACAGCUUGCAUAGUAUAAAGUAA`
Key: 0.00224

Exercise: Can you share its pre-steady-state target cleavage rate? I mean this sequence: `UCCUGGAUCUGCAUGCAUAGUAUUUAGUUA`
Key: 0.0798

Exercise: Can you share its pre-steady-state target cleavage rate? I mean this sequence: `UCCUGGAACCGCUUGCAUAGUAUUUAGUUA`
Key: 0.0172

Exercise: Can you share its pre-steady-state target cleavage rate? I mean this sequence: `UCCUGGUACAGCUUGCAUAGUACUUAGUUA`
Key: 0.00275

Exercise: Can you share its pre-steady-state target cleavage rate? I mean this sequence: `UCCUGGAUGAGGCUUGCAUAGUAUUUAGUUA`
Key: 0.0185

Exercise: Can you share its pre-steady-state target cleavage rate? I mean this sequence: `UCCUCCUACAGCAUGCAUAGUAUUUAGAAA`
Key: 0.00473

Exercise: Can you share its pre-steady-state target cleavage rate? I mean this sequence: `UCCUCCUACAGCUUGCAUACUAUUUACUUA`
Key: 0.00621

Exercise: Can you share its pre-steady-state target cleavage rate? I mean this sequence: `UCCUCCUACAGCUUGCAUUGUAUUUACAAA`
Key: 0.00314

Exercise: Can you share its pre-steady-state target cleavage rate? I mean this sequence: `UCCUGGAUGUGCUUGCAUAGUAUUUAGCUUA`
Key: 0.00517

Exercise: Can you share its pre-steady-state target cleavage rate? I mean this sequence: `UCCUGGAUCAGCUUCGAUAGUAUUUAGUUA`
Key: 0.00503

Exercise: Can you share its pre-steady-state target cleavage rate? I mean this sequence: `UCCUGGAUCUGCUUGCAAAGUAUUUAGUUA`
Key: 0.0405

Exercise: Can you share its pre-steady-state target cleavage rate? I mean this sequence: `UCCUGCUACAGCUAGGAUAGUAUUUAGUUA`
Key: 0.011

Exercise: Can you share its pre-steady-state target cleavage rate? I mean this sequence: `UCCUGGAUGUGCUUGCAUAGUAUUUAGCUA`
Key: 0.00363

###

test system: MILI (PIWIL2) piRISC loaded with L1MC piRNA (26 nt); assay: pre-steady-state target cleavage rate (min^-1); guide: L1MC piRNA 5'p-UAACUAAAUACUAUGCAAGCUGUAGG; MIWI and MILI are mouse PIWI proteins and EfPiwi is from a freshwater sponge; tags in brackets are library labels; higher = faster piRNA-guided slicing of the target; conditions: auxiliary factor: 500 nM mouse GTSF1;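 also: 1 nM active piRISC with 0.1 nM target library at 33 °C single turnover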
# if value of pre-steady-state target cleavage rate reaches 0.2, tag y; if it stays below, tag n

Exercise: Confirm if pre-steady-state target cleavage rate reported for the sequence `UCCUGGAUCAGCUUGCAUUGUAUUUACUUA` is 0.2 or above.
Key: n

Exercise: Confirm if pre-steady-state target cleavage rate reported for the sequence `UCCUGGAUGUCGAUGCUUAGUAUUUAGUUA` is 0.2 or above.
Key: n

Exercise: Confirm if pre-steady-state target cleavage rate reported for the sequence `UCCUGGAACAGUCUUGCAUAGUAUUUAGUUA` is 0.2 or above.
Key: y

Exercise: Confirm if pre-steady-state target cleavage rate reported for the sequence `UCCUGGAUCAGCUUGCAUAGUAUUUAGCUA` is 0.2 or above.
Key: n

Exercise: Confirm if pre-steady-state target cleavage rate reported for the sequence `UCCUGGAUGUCCAUGCUUAGUAUUUAGUUA` is 0.2 or above.
Key: n

Exercise: Confirm if pre-steady-state target cleavage rate reported for the sequence `UCCUGGAACAGCAUUGCAUAGUAUUUAGUUA` is 0.2 or above.
Key: y

Exercise: Confirm if pre-steady-state target cleavage rate reported for the sequence `UCCUCCUACAGGUUGCAUAGUAUUUACUUA` is 0.2 or above.
Key: n

Exercise: Confirm if pre-steady-state target cleavage rate reported for the sequence `UCCUGGAUGUGCUUGCAUAGUAUUUUGUUA` is 0.2 or above.
Key: n

Exercise: Confirm if pre-steady-state target cleavage rate reported for the sequence `UCCUCCGUACAGCUUGCAUAGUAUUUAGUUA` is 0.2 or above.
Key: y

Exercise: Confirm if pre-steady-state target cleavage rate reported for the sequence UCCUCCUACAGCUUGCAUAGUAUUUAGUUC [g2:g26:cont:t1C] is 0.2 or above.
Key: y

Exercise: Confirm if pre-steady-state target cleavage rate reported for the sequence `UCCUGCUACAGCUUGCAUACUAUAUAGUUA` is 0.2 or above.
Key: n

Exercise: Confirm if pre-steady-state target cleavage rate reported for the sequence `UCCUGGAUGUCGAUGCAUAGUAAUUAGUAA` is 0.2 or above.
Key: n

Exercise: Confirm if pre-steady-state target cleavage rate reported for the sequence `UCCUGGAACAGCUUGCUAAGUAUUUAGUUA` is 0.2 or above.
Key: n

Exercise: Confirm if pre-steady-state target cleavage rate reported for the sequence `UCCUGGAACACCUUGCAUAGUAUUUAGUUA` is 0.2 or above.
Key: y

Exercise: Confirm if pre-steady-state target cleavage rate reported for the sequence `UCCUGGAUGUCGAAGCAUAGUAUUGUAGUUA` is 0.2 or above.
Key: n

Exercise: Confirm if pre-steady-state target cleavage rate reported for the sequence `UCCUGGAUGUCCUAGCAUAGUAUAUAGUUA` is 0.2 or above.
Key: n

Exercise: Confirm if pre-steady-state target cleavage rate reported for the sequence `UCCUGGAUGUCGAACCAUAGUUUUUUGUUA` is 0.2 or above.
Key: n

Exercise: Confirm if pre-steady-state target cleavage rate reported for the sequence UCCUGGAUGUCGAUGCAUAGUAUUUAGUUA [g2:g17:cont:t1A] is 0.2 or above.
Key: n

Exercise: Confirm if pre-steady-state target cleavage rate reported for the sequence `UCCUGGAACAGCUUGUAUAGUAUUUAGUUA` is 0.2 or above.
Key: y

Exercise: Confirm if pre-steady-state target cleavage rate reported for the sequence `UCCUGGAUGUGGUUGCAUAGUAUUAAGUUA` is 0.2 or above.
Key: n

Exercise: Confirm if pre-steady-state target cleavage rate reported for the sequence `UCCUGGAACACCUUGCAUAGUAUUUAGAAA` is 0.2 or above.
Key: n

Exercise: Confirm if pre-steady-state target cleavage rate reported for the sequence `UCCUGGAUCAGCUUGCAUAGUAUUUAAUUA` is 0.2 or above.
Key: n

Exercise: Confirm if pre-steady-state target cleavage rate reported for the sequence UCCUGGAACAGCUUGCAUAGUAUUUAGUUC [g2:g23:cont:t1C] is 0.2 or above.
Key: n

Exercise: Confirm if pre-steady-state target cleavage rate reported for the sequence `UCCUCGUACAGCUUGGAUAGUAUUUAGUUA` is 0.2 or above.
Key: y

Exercise: Confirm if pre-steady-state target cleavage rate reported for the sequence `UCCUCCUACACGUUGCAUAGUAUUUAGUAA` is 0.2 or above.
Key: n
